B1: library; numbered along this chain (parent)
chain: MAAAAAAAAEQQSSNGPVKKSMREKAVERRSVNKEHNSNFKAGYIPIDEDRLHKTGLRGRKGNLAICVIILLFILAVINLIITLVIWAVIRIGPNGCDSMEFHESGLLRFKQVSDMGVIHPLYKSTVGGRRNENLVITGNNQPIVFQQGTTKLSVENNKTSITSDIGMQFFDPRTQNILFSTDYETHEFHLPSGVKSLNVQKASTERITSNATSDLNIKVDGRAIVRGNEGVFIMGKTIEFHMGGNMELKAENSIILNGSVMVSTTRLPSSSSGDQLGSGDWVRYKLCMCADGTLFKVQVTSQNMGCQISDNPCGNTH

variants of: B1; assay: SGCB cell-surface expression functional score (HA stain, bin4 vs bin1, normalised to synonymous) (log10 ratio); higher = more cell-surface SGCB (functional)
The class of a record is decided solely by its measured SGCB cell-surface expression functional score (log10); consult category 1: < -0.5; category 2: ≥ -0.5 and < 0.04; category 3: ≥ 0.04

INSERT INTO results (mutant_label, category_label) VALUES
  ('K202P', 'category 1'),
  ('G293F', 'category 2'),
  ('T175D', 'category 2'),
  ('V77E', 'category 2'),
  ('I162T', 'category 1'),
  ('Q142H', 'category 1'),
  ('I47P', 'category 3'),
  ('N95W', 'category 3'),
  ('K61I', 'category 3'),
  ('T150S', 'category 2'),
  ('M305Y', 'category 1'),
  ('I70Y', 'category 2'),
  ('S181N', 'category 1'),
  ('V226F', 'category 3'),
  ('Q12V', 'category 2'),
  ('T151H', 'category 1'),
  ('D292Y', 'category 2'),
  ('N211G', 'category 1'),
  ('F171N', 'category 2'),
  ('K196F', 'category 1'),
  ('V155K', 'category 1'),
  ('I92V', 'category 2'),
  ('Y44E', 'category 3'),
  ('D215R', 'category 1'),
  ('K41T', 'category 3'),
  ('Q201V', 'category 3'),
  ('H36N', 'category 3'),
  ('E206H', 'category 3'),
  ('R227M', 'category 3'),
  ('G167I', 'category 1'),
  ('E188N', 'category 1'),
  ('F170P', 'category 1'),
  ('S13C', 'category 2'),
  ('F171S', 'category 2'),
  ('K152D', 'category 1'),
  ('R58Q', 'category 2'),
  ('R51G', 'category 2'),
  ('T209C', 'category 1'),
  ('A26T', 'category 3'),
  ('T175L', 'category 3'),
  ('C97V', 'category 3'),
  ('G167T', 'category 1'),
  ('V127I', 'category 2'),
  ('T163P', 'category 1'),
  ('E35N', 'category 2'),
  ('R207G', 'category 1'),
  ('G62V', 'category 2'),
  ('Q201H', 'category 3'),
  ('S161R', 'category 2'),
  ('S14V', 'category 3'),
  ('H187D', 'category 3'),
  ('V155F', 'category 1'),
  ('I255L', 'category 3'),
  ('D50V', 'category 2'),
  ('F110G', 'category 1'),
  ('V113P', 'category 3'),
  ('N229K', 'category 3'),
  ('M168K', 'category 1'),
  ('N312G', 'category 2'),
  ('Y285P', 'category 2'),
  ('K219M', 'category 3'),
  ('W282A', 'category 3'),
  ('N199G', 'category 2'),
  ('P143G', 'category 1'),
  ('E28C', 'category 3'),
  ('I70G', 'category 3'),
  ('Y285T', 'category 1'),
  ('N37Y', 'category 2'),
  ('L179H', 'category 1'),
  ('G194Y', 'category 1'),
  ('E28S', 'category 3'),
  ('P173T', 'category 2'),
  ('V298T', 'category 1'),
  ('H120F', 'category 3'),
  ('V118T', 'category 3'),
  ('D98N', 'category 2'),
  ('I66G', 'category 2'),
  ('S13W', 'category 3'),
  ('N63I', 'category 2'),
  ('F73R', 'category 1'),
  ('D172R', 'category 1'),
  ('T182A', 'category 1'),
  ('T266W', 'category 3'),
  ('I137N', 'category 1'),
  ('H187F', 'category 1'),
  ('G236S', 'category 2'),
  ('N141D', 'category 2'),
  ('F40A', 'category 3'),
  ('V300W', 'category 2'),
  ('F296I', 'category 3');
